Recorded values, source patent US9187467B2.

Listed next: entries and their corresponding GI50.
- Tested on: Ovarian cancer cell lines
- measurement_protocol: SRB anticancer assay, panel result
- Format: cell-based, human
- condition_context: Homo sapiens; Ovarian panel; read-out: mean graph midpoint value (MG_MID) of Log10 GI50 (converted)
A number alone suffices; assume µM.

Consider the worked cases shown below.
INSERT INTO measurements (molecule, units, observed_result) VALUES
  ('COc1cc(OC)c2sc(-c3ccc(-n4cncc4-c4ccc(OC)c(OC)c4)cc3)nc2c1 [Compound 6e]', 'µM', 29.5),
  ('COc1cc(OC)c2sc(-c3ccc(-n4cncc4-c4cc(OC)c(OC)c(OC)c4)cc3)nc2c1 [Compound 6f]', 'µM', 16.6),
  ('COc1cc2nc(-c3ccc(-n4cncc4-c4ccc(N)cc4)cc3)sc2c(OC)c1OC [Compound 7h]', 'µM', 5.01),
  ('COc1cc(OC)cc(-c2cncn2-c2ccc(-c3nc4cc(OC)c(OC)c(OC)c4s3)cc2)c1 [Compound 7d]', 'µM', 16.2);

Data request, read-out GI50, for COc1cc(OC)cc(-c2cncn2-c2ccc(-c3nc4cc(OC)cc(OC)c4s3)cc2)c1 [Compound 6d] 7.94

###

- Test system: Prostate cancer cell lines
- measurement_protocol: SRB anticancer assay, panel result
- Assay type: cell-based, human
- condition_context: Prostate panel; total inhibition of net cell growth
parameter: mean graph midpoint value (MG_MID) of log10 TGI

Check out these entries, answers already filled in.
INSERT INTO measurements (smiles_record, observed_result) VALUES
  ('COc1cc2nc(-c3ccc(-n4cncc4-c4ccc(N)cc4)cc3)sc2c(OC)c1OC', '−4.15'),
  ('COc1cc(OC)c2sc(-c3ccc(-n4cncc4-c4cc(OC)c(OC)c(OC)c4)cc3)nc2c1', '>−4.0'),
  ('COc1cc(OC)c2sc(-c3ccc(-n4cncc4-c4ccc(OC)c(OC)c4)cc3)nc2c1', '>−4.0'),
  ('COc1ccc(-c2cncn2-c2ccc(-c3nc4cc(OC)c(OC)c(OC)c4s3)cc2)cc1N', '>−4.0');

Hello, I am looking for reported mean graph midpoint value (MG_MID) of log10 TGI with Prostate cancer cell lines for COc1cc(OC)cc(-c2cncn2-c2ccc(-c3nc4cc(OC)cc(OC)c4s3)cc2)c1 . Could you help? >−4.0

Could you share what mean graph midpoint value (MG_MID) of log10 TGI was measured for COc1cc(-c2cncn2-c2ccc(-c3nc4ccc(F)cc4s3)cc2)ccc1F , tested on Prostate cancer cell lines? −4.06

// lookup mean graph midpoint value (MG_MID) of log10 TGI | system=Prostate cancer cell lines | key= COc1cc(OC)cc(-c2cncn2-c2ccc(-c3nc4cc(OC)c(OC)c(OC)c4s3)cc2)c1 >−4.0

###

- Test system: 786-0
- measurement_protocol: SRB anticancer assay, renal
- Assay type: cell-based, human
- condition_context: 786-0; present compounds
parameter: Log10GI50 (log10 M)
Report as a plain number; the unit log10 M is understood.

Solved entries (count: 3):
INSERT INTO measurements (smiles_record, parameter, observed_result) VALUES
  ('COc1cc2nc(-c3ccc(-n4cncc4-c4ccc(N)cc4)cc3)sc2c(OC)c1OC', 'Log10GI50', '−5.20'),
  ('COc1cc(-c2cncn2-c2ccc(-c3nc4ccc(F)cc4s3)cc2)ccc1F', 'Log10GI50', '−4.44'),
  ('COc1cc(OC)cc(-c2cncn2-c2ccc(-c3nc4cc(OC)c(OC)c(OC)c4s3)cc2)c1', 'Log10GI50', '−4.99');

Now, please, on to the next compound.
Look up Log10GI50 for this compound: COc1ccc(-c2cncn2-c2ccc(-c3nc4cc(OC)c(OC)c(OC)c4s3)cc2)cc1N −5.24

###

- Tested on: MDA-MB-231/ATCC
- measurement_protocol: SRB anticancer assay, breast
- Type: cell-based, human
- condition_context: Homo sapiens, MDA-MB-231, 48 h, MDA-MB-231/ATCC (row head MDA-MB-), 48 h; read-out: GI50
parameter: GI50 (µM)
The response must be a number in µM with no trailing unit.

Sample answers from the record:
INSERT INTO assay_data (smiles_record, system_tested, units, observed_result) VALUES
  ('COc1cc(-c2cncn2-c2ccc(-c3nc4ccc(F)cc4s3)cc2)ccc1F', 'MDA-MB-231/ATCC', 'µM', 32.2),
  ('COc1cc(OC)c2sc(-c3ccc(-n4cncc4-c4cc(OC)c(OC)c(OC)c4)cc3)nc2c1', 'MDA-MB-231/ATCC', 'µM', 3.51),
  ('COc1cc(OC)c2sc(-c3ccc(-n4cncc4-c4ccc(OC)c(OC)c4)cc3)nc2c1', 'MDA-MB-231/ATCC', 'µM', 28.4);

Query the reported GI50 for MDA-MB-231/ATCC; item: COc1cc2nc(-c3ccc(-n4cncc4-c4ccc(N)cc4)cc3)sc2c(OC)c1OC 3.65

Return GI50 measured with MDA-MB-231/ATCC given this compound: COc1cc(OC)cc(-c2cncn2-c2ccc(-c3nc4cc(OC)c(OC)c(OC)c4s3)cc2)c1 19.2

State its GI50 on MDA-MB-231/ATCC: COc1cc(OC)cc(-c2cncn2-c2ccc(-c3nc4cc(OC)cc(OC)c4s3)cc2)c1 9.01

###

- Test system: Breast cancer cell lines
- measurement_protocol: SRB anticancer assay, panel result
- Assay type: cell-based, human
- condition_context: Breast panel; total inhibition of net cell growth
We begin with a simple list: items and their reported mean graph midpoint value (MG_MID) of log10 TGI.

Solved entries (count: 6):
INSERT INTO assay_data (smiles_record, observed_result) VALUES
  ('COc1ccc(-c2cncn2-c2ccc(-c3nc4cc(OC)c(OC)c(OC)c4s3)cc2)cc1N', '>−4.0'),
  ('COc1cc(-c2cncn2-c2ccc(-c3nc4ccc(F)cc4s3)cc2)ccc1F', '−4.02'),
  ('COc1cc(OC)c2sc(-c3ccc(-n4cncc4-c4ccc(OC)c(OC)c4)cc3)nc2c1', '>−4.0'),
  ('COc1cc(OC)c2sc(-c3ccc(-n4cncc4-c4cc(OC)c(OC)c(OC)c4)cc3)nc2c1', '>−4.0'),
  ('COc1cc(OC)cc(-c2cncn2-c2ccc(-c3nc4cc(OC)c(OC)c(OC)c4s3)cc2)c1', '>−4.0'),
  ('COc1cc2nc(-c3ccc(-n4cncc4-c4ccc(N)cc4)cc3)sc2c(OC)c1OC', '−4.47');

Now for the compound whose mean graph midpoint value (MG_MID) of log10 TGI we want.
Would you mind telling me what mean graph midpoint value (MG_MID) of log10 TGI value was observed for COc1cc(OC)cc(-c2cncn2-c2ccc(-c3nc4cc(OC)cc(OC)c4s3)cc2)c1 ? >−4.0

###

- Test system: Melanoma cancer cell lines
- measurement_protocol: SRB anticancer assay, panel result
- Format: cell-based, human
- condition_context: Homo sapiens; nine melanoma cancer cell lines; exposure at least 48 h; read-out: GI50, range over the panel
- Description: The compounds were evaluated for anticancer activity against sixty human cancer cells derived from nine cancer types (leukemia cell line, non-small-cell lung cell line, colon cell line, CNS cell line, melanoma cell line, ovarian cell line, prostate cell line, renal cancer cell line and breast cancer cell line) as shown in Table 1. For each compound, dose response curves for each cell line were measured at a minimum of five concentrations at 10 fold dilutions. […]
In this section, each of the compounds is paired with its reported GI50.

// worked examples, GI50 included
INSERT INTO results (smiles_record, system_tested, observed_result) VALUES
  ('COc1cc(OC)cc(-c2cncn2-c2ccc(-c3nc4cc(OC)cc(OC)c4s3)cc2)c1', 'Melanoma cancer cell lines', '1.53 to 9.69 µM'),
  ('COc1cc(-c2cncn2-c2ccc(-c3nc4ccc(F)cc4s3)cc2)ccc1F', 'Melanoma cancer cell lines', '4.11 to 39.7 µM'),
  ('COc1ccc(-c2cncn2-c2ccc(-c3nc4cc(OC)c(OC)c(OC)c4s3)cc2)cc1N', 'Melanoma cancer cell lines', '1.73 to 13.7 µM'),
  ('COc1cc(OC)cc(-c2cncn2-c2ccc(-c3nc4cc(OC)c(OC)c(OC)c4s3)cc2)c1', 'Melanoma cancer cell lines', '2.85 to 31.6 µM'),
  ('COc1cc2nc(-c3ccc(-n4cncc4-c4ccc(N)cc4)cc3)sc2c(OC)c1OC', 'Melanoma cancer cell lines', '0.71 to 6.4 µM'),
  ('COc1cc(OC)c2sc(-c3ccc(-n4cncc4-c4ccc(OC)c(OC)c4)cc3)nc2c1', 'Melanoma cancer cell lines', '3.61 to 59.8 µM');

For the compound COc1cc(OC)c2sc(-c3ccc(-n4cncc4-c4cc(OC)c(OC)c(OC)c4)cc3)nc2c1 , what GI50 is on record? 2.46 to 7.91 µM

###

Readings of LC50 for the listed compounds
- System: Non-small cell lung cancer cell lines
- measurement_protocol: SRB anticancer assay, panel result
- Assay type: cell-based, human
- condition_context: Homo sapiens; Non-small cell lung panel; 50% net cell death; read-out: mean graph midpoint value (MG_MID) of Log10 LC50 (converted)

INSERT INTO measurements (smiles_record, system_tested, observed_result) VALUES
  ('COc1cc(-c2cncn2-c2ccc(-c3nc4ccc(F)cc4s3)cc2)ccc1F', 'Non-small cell lung cancer cell lines', '93.3 µM');

Using the record for COc1cc(OC)c2sc(-c3ccc(-n4cncc4-c4ccc(OC)c(OC)c4)cc3)nc2c1 , report its LC50. > 100 µM

Can you share its LC50? I mean this compound: COc1cc(OC)cc(-c2cncn2-c2ccc(-c3nc4cc(OC)cc(OC)c4s3)cc2)c1 > 100 µM

# LC50 lookup, item COc1cc2nc(-c3ccc(-n4cncc4-c4ccc(N)cc4)cc3)sc2c(OC)c1OC 93.3 µM

What does the data say about its LC50? Entry: COc1ccc(-c2cncn2-c2ccc(-c3nc4cc(OC)c(OC)c(OC)c4s3)cc2)cc1N > 100 µM

What value of measured LC50 is listed for COc1cc(OC)cc(-c2cncn2-c2ccc(-c3nc4cc(OC)c(OC)c(OC)c4s3)cc2)c1 ? > 100 µM

What value of measured LC50 is listed for COc1cc(OC)c2sc(-c3ccc(-n4cncc4-c4cc(OC)c(OC)c(OC)c4)cc3)nc2c1 ? > 100 µM
